# ASSAY METHOD TEXT: Antiproliferative activity against HEK293 cells assessed as cell growth inhibition incubated for 48 hrs by MTT assay
# Format: toxicity, cell-based
# APPLIED CONDITIONS: human
MEASUREMENT NAME: IC50 at 48 h (µM)
I only need the number, in µM, no unit after it.

Cc1cnc(Nc2ccc(S(N)(=O)=O)cc2)nc1Nc1nccs1    90.1
CCOC(=O)CNc1ccnc(Nc2ccc(OC)cc2)n1    126

Continue with the next molecule.
Qu. Recorded IC50 at 48 h for `Cc1ncc(-c2ccnc(Nc3ccc(S(C)(=O)=O)cc3)n2)n1C(C)C` , please?
Ans. 18
